Consider the following compounds; for each one, report its inhibition.
- TARGET: UniProtKB Q99895
- Sequence (Q99895 whole entry): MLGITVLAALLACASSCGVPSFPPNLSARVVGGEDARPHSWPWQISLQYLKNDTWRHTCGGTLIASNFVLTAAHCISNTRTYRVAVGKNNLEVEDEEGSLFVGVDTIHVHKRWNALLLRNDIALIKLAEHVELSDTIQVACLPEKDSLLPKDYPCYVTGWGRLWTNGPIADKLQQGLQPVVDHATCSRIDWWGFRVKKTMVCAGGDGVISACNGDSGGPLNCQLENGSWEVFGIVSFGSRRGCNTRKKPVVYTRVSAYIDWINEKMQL
- MEASUREMENT_NOTES: Inhibition of human Serine protease chymotrypsin at 20 ug/mL
Reply with just the number (in %).

Look up inhibition: "O=C(CN1C(=O)C(=O)c2cc(OC(F)(F)F)ccc21)c1ccc2ccccc2c1"
97

# get_value(readout='inhibition', item= CC(C)C[C@H](NC(=O)[C@@H](NC(=O)N[C@@H](Cc1ccccc1)C(=O)O)C1CCNC(=N)N1)C(=O)N[C@H](C=O)Cc1ccccc1 (stereo partly specified) )
95

Give the measured inhibition of "NC(=O)CN1C(=O)C(=O)c2ccccc21" .
5

I am curious: what inhibition value has been reported for "CC(C)(C)C(=O)CN1C(=O)C(=O)c2ccccc21" ?
85

Entry under review: "N#Cc1cccc(NC(=O)N2CCN(C(=O)CN3C(=O)C(=O)c4cc(OC(F)(F)F)ccc43)CC2)c1" . Reported inhibition?
77

What does the data say about its inhibition? Entry: "O=C(CN1C(=O)C(=O)c2ccccc21)c1ccc(Cl)cc1"
89

###

- TARGET: Neutrophil elastase (Homo sapiens)
- Sequence (whole entry): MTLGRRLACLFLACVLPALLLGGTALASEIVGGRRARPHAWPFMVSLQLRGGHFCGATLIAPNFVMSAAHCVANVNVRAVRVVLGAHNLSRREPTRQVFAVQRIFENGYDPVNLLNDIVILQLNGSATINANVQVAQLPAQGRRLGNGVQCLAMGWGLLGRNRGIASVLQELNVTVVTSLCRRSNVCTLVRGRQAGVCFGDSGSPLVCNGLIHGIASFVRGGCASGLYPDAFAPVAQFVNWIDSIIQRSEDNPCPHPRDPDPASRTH
- MEASUREMENT_NOTES: Inhibition of human leucocyte elastase at 20 ug/mL
ASSAY_METRIC: inhibition (%)
State the answer as a number, implicitly in %.

Consider the compound "N#Cc1cccc(NC(=O)N2CCN(C(=O)CN3C(=O)C(=O)c4cc(OC(F)(F)F)ccc43)CC2)c1" and give its measured inhibition.
26

For the compound shown here, "NC(=O)CN1C(=O)C(=O)c2ccccc21" , give the reported inhibition.
3

Fill in: inhibition of "O=C1C(=O)N(CC(=O)N2CCN(C(=O)Nc3cccc4ccccc34)CC2)c2ccc(OC(F)(F)F)cc21" is ___
79

If you can, please state the reported inhibition value of "CC(C)(C)C(=O)CN1C(=O)C(=O)c2ccccc21" .
51

Need inhibition of "O=C1C(=O)N(CC(=O)N2CCN(C(=O)Nc3cccc4ccccc34)CC2)c2ccc(Cl)cc21" , thanks.
74

Give its inhibition value. Item: "Cc1ccc(C(=O)CN2C(=O)C(=O)c3ccccc32)cc1"
45

For the compound "O=C(CN1C(=O)C(=O)c2cc(OC(F)(F)F)ccc21)c1ccc2ccccc2c1" , what inhibition is on record?
64

Need inhibition, item "O=C(CN1C(=O)C(=O)c2ccccc21)c1ccc(F)cc1"
90

Which value of inhibition has been reported for "O=C(CN1C(=O)C(=O)c2ccccc21)c1ccc(Cl)cc1" in the records?
56

Tell me the measured inhibition of "CCCCOC(=O)Nc1cccc(NC(=O)NC(=O)N2CCN(C(=O)CN3C(=O)C(=O)c4cc([N+](=O)[O-])ccc43)CC2)c1" , please.
94
